Property: viability, T/C; scope: individual compounds
System: 126254-015-R-J1-PDC complex spheroid growth, % test/control;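 note: spheroids exposed to compound for seven days; 100% = DMSO vehicle control wells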
Test: Anticancer human tumor 126254-015-R-J1-PDC patient-derived soft tissue sarcoma cell line growth inhibition [Asc]
Details: second compound 0.0316 µM; first compound 0.0316 µM; hits give low values

COMPOUND	U	viability, T/C
O=C(c1ccc(F)c(F)c1Nc1ccc(I)cc1F)N1CC(O)([C@@H]2CCCCN2)C1 + CNC(C)C(=O)NC1CN(S(=O)(=O)c2cccc(S(=O)(=O)N3CCC4CCC(C(=O)NC(c5ccccc5)c5ccccc5)N4C(=O)C(NC(=O)C(C)NC)C3)c2)CCC2CCC(C(=O)NC(c3ccccc3)c3ccccc3)N2C1=O	%	67.9
C#Cc1c(F)ccc2cc(O)cc(-c3ncc4c(N5CC6CCC(C5)N6)nc(OCC56CCCN5CC(F)C6)nc4c3F)c12 (centres undefined) + CNC(C)C(=O)NC1CN(S(=O)(=O)c2cccc(S(=O)(=O)N3CCC4CCC(C(=O)NC(c5ccccc5)c5ccccc5)N4C(=O)C(NC(=O)C(C)NC)C3)c2)CCC2CCC(C(=O)NC(c3ccccc3)c3ccccc3)N2C1=O	%	69.6
O=C(c1cc(Cc2n[nH]c(=O)c3ccccc23)ccc1F)N1CCN(C(=O)C2CC2)CC1 + CNC(C)C(=O)NC1CN(S(=O)(=O)c2cccc(S(=O)(=O)N3CCC4CCC(C(=O)NC(c5ccccc5)c5ccccc5)N4C(=O)C(NC(=O)C(C)NC)C3)c2)CCC2CCC(C(=O)NC(c3ccccc3)c3ccccc3)N2C1=O	%	85.1
C=C(F)C(=O)N1CCN(c2nc(OCC3CCCN3C)nc3c2CCN(c2cccc4cccc(Cl)c24)C3)CC1CC#N (centres undefined) + CNC(C)C(=O)NC1CN(S(=O)(=O)c2cccc(S(=O)(=O)N3CCC4CCC(C(=O)NC(c5ccccc5)c5ccccc5)N4C(=O)C(NC(=O)C(C)NC)C3)c2)CCC2CCC(C(=O)NC(c3ccccc3)c3ccccc3)N2C1=O	%	71.4
CCN1CCN(Cc2ccc(Nc3ncc(F)c(-c4cc(F)c5nc(C)n(C(C)C)c5c4)n3)nc2)CC1 + CNC(C)C(=O)NC1CN(S(=O)(=O)c2cccc(S(=O)(=O)N3CCC4CCC(C(=O)NC(c5ccccc5)c5ccccc5)N4C(=O)C(NC(=O)C(C)NC)C3)c2)CCC2CCC(C(=O)NC(c3ccccc3)c3ccccc3)N2C1=O	%	77.8
Cn1ncnc1[C@H]1c2n[nH]c(=O)c3cc(F)cc(c23)N[C@@H]1c1ccc(F)cc1 + CNC(C)C(=O)NC1CN(S(=O)(=O)c2cccc(S(=O)(=O)N3CCC4CCC(C(=O)NC(c5ccccc5)c5ccccc5)N4C(=O)C(NC(=O)C(C)NC)C3)c2)CCC2CCC(C(=O)NC(c3ccccc3)c3ccccc3)N2C1=O	%	56.1
C=CC(=O)N1CCN(c2nc(=O)n(-c3c(C)ccnc3C(C)C)c3nc(-c4c(O)cccc4F)c(F)cc23)C(C)C1 (centres undefined) + CNC(C)C(=O)NC1CN(S(=O)(=O)c2cccc(S(=O)(=O)N3CCC4CCC(C(=O)NC(c5ccccc5)c5ccccc5)N4C(=O)C(NC(=O)C(C)NC)C3)c2)CCC2CCC(C(=O)NC(c3ccccc3)c3ccccc3)N2C1=O	%	85.1
COc1c(OCCCN2CCOCC2)ccc2c3n(c(=NC(=O)c4cnc(N)nc4)nc12)CCN3 + CNC(C)C(=O)NC1CN(S(=O)(=O)c2cccc(S(=O)(=O)N3CCC4CCC(C(=O)NC(c5ccccc5)c5ccccc5)N4C(=O)C(NC(=O)C(C)NC)C3)c2)CCC2CCC(C(=O)NC(c3ccccc3)c3ccccc3)N2C1=O	%	60.7
NC1CCC(NC2CC2c2ccccc2)CC1 (centres undefined) + CNC(C)C(=O)NC1CN(S(=O)(=O)c2cccc(S(=O)(=O)N3CCC4CCC(C(=O)NC(c5ccccc5)c5ccccc5)N4C(=O)C(NC(=O)C(C)NC)C3)c2)CCC2CCC(C(=O)NC(c3ccccc3)c3ccccc3)N2C1=O	%	78.1
